# credit: PubChem BioAssay (NCI)

test system: SK-OV-3 ovarian; assay: NCI tumour cell line growth inhibition, 48 h
endpoint_label: TGI

COc1cc(C2C(Cl)C(=O)N2NC(=O)c2ccc(N)cc2)ccc1O (stereo not given) :: > 100 µM
COc1cc2cc[n+]3c(C)c4cc(OC)c(OC)cc4c([O-])c3c2cc1OC :: > 100 µM

Hi there! I need TGI for each item below, if you can.
1. CCOC(=O)Cc1cc(OC)c(OC)cc1/C(Cl)=C(\C=O)c1ccc(OC)c(OC)c1
2. O=c1cc(N2CCN(c3cc(=O)n4ccccc4n3)CC2)oc2ccccc12
3. CC#CC(=O)SCCNC(=O)CC

Resp:
1: 86 µM; 2: > 100 µM; 3: > 10 µM

----------
tested on: EKVX NSCLC; assay: NCI tumour cell line growth inhibition, 48 h
endpoint_label: TGI

Answered cases to consult:
S=C1SCN(Cc2ccco2)CN1c1ccc(Br)cc1 :: 64.6 µM
CCN(CC)c1ccc2cc(C(=O)Nc3cccc4ccccc34)c(=N)oc2c1 :: > 100 µM

Hi there! I need TGI for each item below, if you can.
1. COc1ccccc1NC(=O)CC(=O)N1N=C(C)C(N=Nc2ccc(C(=O)O)cc2)C1=O (configuration not stated)
2. CC1(C)[C@H]2CC[C@]1(C)[C@H](OC(=O)NNC(=O)O[C@@H]1C[C@@H]3CC[C@@]1(C)C3(C)C)C2

Resp:
1: > 100 µM; 2: 31.2 µM

----------
tested on: MALME-3M melanoma; assay: NCI tumour cell line growth inhibition, 48 h
Record form. Attribute: TGI. Fill in for each entry.

Answered cases to consult:
CCc1ccc(NC(=O)COC(=O)c2cc([N+](=O)[O-])ccc2Sc2nnnn2C)cc1 :: > 100 µM
CC(=O)Oc1c2oc3ccc(Cl)cc3c(=O)c2c(O)c2ccsc12 :: > 100 µM

Next molecule, TGI to be filled in.
Req: Please look up its TGI: C#CCSC(C=C=C)P(=O)(OC(C)C)OC(C)C (stereo not drawn)
Resp: > 100 µM

----------
test system: CAKI-1 renal; experiment: NCI tumour cell line growth inhibition, 48 h
endpoint_label: TGI

O=c1ccn(CC2(CO)CC(Cc3ccccc3)C2)c(=O)[nH]1 (centres undefined) :: > 100 µM
CC1(c2ccc[n+](Cc3ccccc3)c2)OCCO1 :: > 100 µM
CS[C@]12C(=O)C[C@@]3(C)[C@@H](CC[C@]3(O)C(=O)CO)[C@@H]1CCC1=CC(=O)CC[C@@]12C :: > 100 µM
O=CN/C=C/c1ccc(O)c(O)c1 :: > 100 µM
CC1CC/C(=C\c2ccc(Cl)cc2)C2OC(N)=C(C#N)C(c3ccc(Cl)cc3)=C12 (centres undefined) :: 31.2 µM

Hi there! I need TGI for each item below, if you can.
1. CCOC(=O)c1c(N2CCCC2)ncn(Cc2ccccc2)c1=S
2. O=C(c1cc(Cl)ccc1Cl)N1CCN(C(=O)c2cc(Cl)ccc2Cl)CC1
3. CC1(C)CC(=O)c2c(nc3ccc4ccccc4c3c2-c2ccc(NC(=O)CCCCCCCCC(=O)Nc3ccc(-c4c5c(nc6ccc7ccccc7c46)CC(C)(C)CC5=O)cc3)cc2)C1
4. N#CC(c1nc2ccccc2nc1Cl)S(=O)(=O)c1ccccc1 (centres undefined)

Resp:
88.3 µM
> 100 µM
> 100 µM
> 100 µM

----------
system: KM12 colon; experiment: NCI tumour cell line growth inhibition, 48 h; in the data active = GI50 below about 0.43 µM; inactive = the rest
The reply should be one of these categories: active, inactive

Recorded results for 3 compounds are shown here.
Nc1[nH]nc2nc(-c3cccs3)cc(C(F)(F)F)c12 :: inactive
COc1cccc(-n2ncc3c(N/N=C/c4ccncc4)ncnc32)c1 :: inactive
NC(=S)N/N=C/c1ncccc1N :: inactive

Req: Fill in: this test's call for `Clc1nc(Cl)c2ncn(C/C=C/COc3cccc(OC/C=C/Cn4cnc5c(Cl)nc(Cl)nc54)c3)c2n1` is ___
Resp: inactive

Req: Fill in: this test's call for `CCOC(=O)c1cnc2oc3ccc(O)cc3c2c1-c1ccccc1` is ___
Resp: inactive

Req: Fill in: this test's call for Nc1nc(Nc2ccc(C3CCC(N4CCOCC4)CC3)cc2)nn1-c1ccccn1 (stereo unspecified) is ___
Resp: active

----------
Record form. Attribute: TGI. Fill in for each entry.
tested on: CCRF-CEM leukemia; test: NCI tumour cell line growth inhibition, 48 h

CC1(c2ccc[n+](Cc3ccccc3)c2)OCCO1 :: > 100 µM
O=C(NN1C(=O)CSC12CCCC2)c1[nH]c2ccc(Br)cc2c1-c1ccccc1 :: > 100 µM

Hi there! I need TGI for each item below, if you can.
1. Cc1ccc(CNc2c3ccccc3nc3cc(NC(=O)CCN4CCCC4)ccc23)cc1
2. C/C=C(/COC(C)=O)C(=O)OC1C=C(C=O)C(C)(C)C=C1C (stereo unspecified)
3. CC(=O)Oc1c2oc3ccc(Cl)cc3c(=O)c2c(O)c2ccsc12
4. O=[N+]([O-])c1cccc([As]=[As]c2cccc([N+](=O)[O-])c2)c1 (stereo unspecified)

Resp:
1. 2.12 µM
2. > 100 µM
3. > 100 µM
4. 0.112 µM

----------
tested on: MALME-3M melanoma; test: NCI tumour cell line growth inhibition, 48 h
endpoint_label: TGI

Answered cases to consult:
O=S1(=O)OCCOS(=O)(=O)C1Cc1ccccc1 :: > 100 µM
O=C1c2c(O)cccc2C(C2OC(CO)C(O)C(O)C2O)c2cc(CO)cc(O)c21 (stereo not drawn) :: > 100 µM

Next compound, TGI to be filled in.
Req: Please look up its TGI: `O=C(Nc1ccccc1)N(CCCCN(Cc1ccccc1)C(=O)Nc1ccccc1)Cc1ccccc1`
Resp: > 100 µM

----------
test system: HCT-116 colon; experiment: NCI tumour cell line growth inhibition, 48 h
Record form. Attribute: TGI. Fill in for each entry.

Answered cases to consult:
CSC1=N/C(=C\c2ccco2)C(=O)N1CN1CCOCC1 :: > 66.9 µM
Cc1cccc(C(C)C)c1NC(=O)CC1C(=O)Nc2ccccc2S1(=O)=O (stereo unspecified) :: > 46.9 µM

Hi there! I need TGI for each item below, if you can.
1. [N-]=[N+]=NC(CI)c1cn([C@H]2C[C@H](O)[C@@H](CO)O2)c(=O)[nH]c1=O (stereo partly specified)
2. CC(=O)Nc1ccc(OC2=CCN(C)CC2)cc1
3. C=C(CO[Si](C)(C)C(C)(C)C)C(C)=O

Resp:
1. > 100 µM
2. > 100 µM
3. 27 µM

Req: Please look up its TGI: `Cc1ccc(Nc2nc(C)c(C(/C=C/c3ccc(/C=C/C(=N/NC(=O)C[n+]4ccccc4)c4sc(Nc5ccc(C)cc5[N+](=O)[O-])nc4C)cc3)=N\NC(=O)C[n+]3ccccc3)s2)c([N+](=O)[O-])c1`
Resp: > 100 µM

----------
Record form. Attribute: TGI. Fill in for each entry.
system: SR leukemia; test: NCI tumour cell line growth inhibition, 48 h
Give bare numbers, in µM.

COC(=O)[C@H]1CO[C@H]2C/C(C)=C/CC/C(C)=C/CC[C@@]3(C)O[C@@H]3C[C@H]21 :: 27.1

Next molecule, TGI to be filled in.
Req: Please look up its TGI: C[C@@H]1CC[C@H]2C(C(O)CCCCC(O)C3=C(C(F)(F)F)O[C@@H]4O[C@@]5(C)CC[C@H]6[C@H](C)CC[C@@H]3[C@@]46OO5)=C(C(F)(F)F)O[C@@H]3O[C@@]4(C)CC[C@@H]1[C@]32OO4 (stereo not given in full)
Resp: 6.04

----------
Record form. Attribute: TGI. Fill in for each entry.
test system: NCI-H460 lung; assay: NCI tumour cell line growth inhibition, 48 h

Answered cases to consult:
CCN(CC)c1ccc2cc(C(=O)Nc3cccc4ccccc34)c(=N)oc2c1 :: > 100 µM
Nc1ccccc1CC(O)C(=O)O (stereo unspecified) :: > 100 µM
COc1ccc(C(=O)c2cc3c(N)c(C(=O)Nc4cccc5ccccc45)sc3nc2C)cc1 :: > 22.5 µM
COc1ccc(/C=C2\S/C(=N/Nc3nc(-c4ccccc4)cs3)NC2=O)cc1OC :: > 100 µM
O=C(Nc1ccccc1)N(CCCCN(Cc1ccccc1)C(=O)Nc1ccccc1)Cc1ccccc1 :: > 100 µM

Next compound, TGI to be filled in.
Req: Please look up its TGI: C=C(C)C(O)C(O)c1c(OC)ccc2ccc(=O)oc12 (stereo unspecified)
Resp: > 100 µM

----------
tested on: LOX IMVI melanoma; test: NCI tumour cell line growth inhibition, 48 h
endpoint_label: TGI (µM)
One number for each entry, in µM.

Hi there! I need TGI for each item below, if you can.
1. CC1CC/C(=C\c2ccc(Cl)cc2)C2OC(N)=C(C#N)C(c3ccc(Cl)cc3)=C12 (centres undefined)
2. C[C@]12CC[C@H]3[C@@H](CC[C@]4(O)C[C@@H](O)CC[C@]34/C=N/O)[C@@]1(O)CC[C@@H]2C1=COC(=O)C1
3. CN(C)c1ccc2c(c1)OC(N)=C(C#N)C2c1ccc2c(c1)CCO2 (centres undefined)

Resp:
[26.6, 0.489, 17.9]

Req: Please look up its TGI: `O=C(Nc1nc2ccccc2s1)c1cc([N+](=O)[O-])ccc1Cl`
Resp: 13.7
